Data origin: patent US20180298024A1

// concentration at 24 h lookup, one value per entry
Assay: Pharmacokinetic profile in mice (plasma, LC-MS/MS)
Conditions: CD-1, mouse, plasma, po, 10 mg/kg
assay-readout: concentration at 24 h

[
  {
    "structure-as-smiles": "C[C@]12CC=C3C=C4CC[C@@H](N5CC(N)C5)C[C@]45CC[C@]3(O5)[C@@H]1CC[C@@H]2c1ccc2ccncc2c1",
    "recorded-value": "82.5 nM"
  },
  {
    "structure-as-smiles": "C[C@]12CC=C3C=C4CC[C@@H](N5C[C@H](O)[C@@H](O)C5)C[C@]45CC[C@]3(O5)[C@@H]1CC[C@@H]2c1ccc2ccncc2c1",
    "recorded-value": "7.6 nM"
  },
  {
    "structure-as-smiles": "C[C@]12CC=C3C=C4CC[C@@H](O)C[C@]45CC[C@]3(O5)[C@@H]1CC[C@@H]2c1ccc2ccncc2c1",
    "recorded-value": "1.8 nM"
  },
  {
    "structure-as-smiles": "C[C@]12CC=C3C=C4CC[C@@H](N5CC[C@@H](N)C5)C[C@]45CC[C@]3(O5)[C@@H]1CC[C@@H]2c1ccc2ccncc2c1",
    "recorded-value": "26.4 nM"
  }
]
